- Tested on: proliferating neural precursor cells in the hippocampus (subgranular layer of the dentate gyrus)
- procedure-text: standard in vivo hippocampal neurogenesis assay (BrdU labelling, week-long intracranial mini-pump infusion)
- Set-up: species or system mouse (C57/B6)
- reported-conditions: 10 μM concentration, seven days of infusion at 0.5 μL/hour, daily IP BrdU; four 12 week old adult male C57/B6 mice; vehicle 14.5
measure: (×10^−06) BrdU+ cells/mm^3 dentate gyrus

[[record]]
compound = "CC(C)(C)NCC(O)CN1c2ccccc2CCc2ccccc21 (stereo not drawn) [P7C3-S145]"
experimental_value = "25 (×10^−06) BrdU+ cells/mm^3"

[[record]]
compound = "N#Cc1ccc2c(c1)c1cc(Br)ccc1n2CC(=O)O [P7C3-S224]"
experimental_value = "20.2 (×10^−06) BrdU+ cells/mm^3"

[[record]]
compound = "CCOC(=O)C1=NCc2c(c3ccccc3n2S(=O)(=O)c2ccc(C)cc2)N1 [P7C3-S247]"
experimental_value = "31.1 (×10^−06) BrdU+ cells/mm^3"

[[record]]
compound = "COc1cccc(N(CC(F)Cn2c3ccc(Br)cc3c3cc(Br)ccc32)S(=O)(=O)c2ccccc2C(F)(F)F)c1 (stereo not drawn) [P7C3-S257]"
experimental_value = "29.4 (×10^−06) BrdU+ cells/mm^3"

[[record]]
compound = "O=C(O)c1cc2c(cn1)[nH]c1ccc(Br)cc12 [P7C3-S206]"
experimental_value = "29.6 (×10^−06) BrdU+ cells/mm^3"

[[record]]
compound = "c1ccc2c(c1)CCc1ccccc1N2 [P7C3-S212, iminodibenzyl, reference compound]"
experimental_value = "20.5 (×10^−06) BrdU+ cells/mm^3"

[[record]]
compound = "O=S(=O)(NCC(O)Cn1c2ccc(Br)cc2c2cc(Br)ccc21)C(F)(F)F (stereo not drawn) [P7C3-S264]"
experimental_value = "20.6 (×10^−06) BrdU+ cells/mm^3"

[[record]]
compound = "CN(C)CC(O)CN1c2ccccc2CCc2ccccc21 (stereo not drawn) [P7C3-S139]"
experimental_value = "24.9 (×10^−06) BrdU+ cells/mm^3"


--- query ---
Asked: # input compound: COc1ccc(S(=O)(=O)N(CC(O)Cn2c3ccc(Br)cc3c3cc(Br)ccc32)c2cccc(OC)c2)cc1 (stereo not drawn) [P7C3-S254] ; wanted: its (×10^−06) BrdU+ cells/mm^3 dentate gyrus
Given back: 25.5 (×10^−06) BrdU+ cells/mm^3
